# Assay Target: binding between p34 protein and NEDD4-1 protein (Homo sapiens, UniProt P46934+Q9UHV2)
# Construct: FLAG or 6xHis (known only from the detection antibodies)
# Sequence (P46934 whole entry): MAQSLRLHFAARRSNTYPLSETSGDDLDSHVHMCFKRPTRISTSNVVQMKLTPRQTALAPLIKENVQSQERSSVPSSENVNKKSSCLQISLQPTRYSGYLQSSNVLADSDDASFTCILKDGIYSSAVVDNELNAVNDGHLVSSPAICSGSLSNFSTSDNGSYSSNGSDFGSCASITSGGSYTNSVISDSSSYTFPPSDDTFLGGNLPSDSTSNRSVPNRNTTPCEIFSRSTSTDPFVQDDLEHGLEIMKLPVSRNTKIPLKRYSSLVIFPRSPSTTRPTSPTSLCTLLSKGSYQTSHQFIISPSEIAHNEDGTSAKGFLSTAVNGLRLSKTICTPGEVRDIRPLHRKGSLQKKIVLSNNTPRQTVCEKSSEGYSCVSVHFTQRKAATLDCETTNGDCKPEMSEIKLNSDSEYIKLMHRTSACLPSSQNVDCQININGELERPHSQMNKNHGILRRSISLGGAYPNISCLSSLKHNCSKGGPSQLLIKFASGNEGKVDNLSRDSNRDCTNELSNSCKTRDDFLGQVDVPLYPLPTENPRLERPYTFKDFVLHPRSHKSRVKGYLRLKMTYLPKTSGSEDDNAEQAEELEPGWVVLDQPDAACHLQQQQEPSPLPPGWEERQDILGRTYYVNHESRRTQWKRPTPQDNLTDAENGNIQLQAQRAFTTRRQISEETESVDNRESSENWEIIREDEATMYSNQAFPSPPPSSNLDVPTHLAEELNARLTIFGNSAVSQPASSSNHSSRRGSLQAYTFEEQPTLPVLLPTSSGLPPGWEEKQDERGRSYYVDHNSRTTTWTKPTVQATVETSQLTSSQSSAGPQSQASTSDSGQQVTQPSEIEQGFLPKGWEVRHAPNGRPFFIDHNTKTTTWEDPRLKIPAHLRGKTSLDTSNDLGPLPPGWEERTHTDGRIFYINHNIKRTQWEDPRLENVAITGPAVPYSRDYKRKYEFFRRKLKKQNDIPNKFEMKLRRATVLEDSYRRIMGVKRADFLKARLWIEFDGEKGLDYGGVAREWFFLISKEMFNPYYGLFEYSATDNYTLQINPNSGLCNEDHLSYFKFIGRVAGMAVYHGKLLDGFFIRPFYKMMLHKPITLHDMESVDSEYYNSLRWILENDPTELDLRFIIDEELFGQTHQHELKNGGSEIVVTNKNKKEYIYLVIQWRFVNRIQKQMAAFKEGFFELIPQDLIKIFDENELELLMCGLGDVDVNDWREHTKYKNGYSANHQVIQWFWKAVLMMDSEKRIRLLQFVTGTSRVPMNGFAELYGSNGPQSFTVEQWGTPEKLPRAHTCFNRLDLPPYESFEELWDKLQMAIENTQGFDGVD
# Sequence (Q9UHV2 whole entry): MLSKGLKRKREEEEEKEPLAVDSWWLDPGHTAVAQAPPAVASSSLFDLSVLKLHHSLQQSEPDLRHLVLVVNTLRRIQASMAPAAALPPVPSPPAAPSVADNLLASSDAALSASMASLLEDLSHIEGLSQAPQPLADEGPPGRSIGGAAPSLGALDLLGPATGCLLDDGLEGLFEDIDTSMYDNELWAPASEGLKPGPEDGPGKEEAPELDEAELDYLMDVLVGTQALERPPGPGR
# Protocol Details: Inhibitory activity on binding between p34 and NEDD4-1, FRET (HTRF) assay
# Test Parameters: pH 7.4, compound 10 μM; 1×PBS pH 7.4, 0.1% BSA, 2% DMSO; 384-well
# Protocol: Inhibitory activity of the compound on binding between p34 and NEDD4-1 was evaluated using p34 protein and NEDD4-1 protein based on the HTRF technology developed by Cisbio. In this assay, a fluorescence resonance energy transfer (FRET) signal was measured in the presence of terbium-labeled anti-FLAG antibody and d2-labeled anti-6XHis antibody. […] Subsequently, inhibitory activity of the compound on p34-NEDD4-1 was calculated in %.
Reported Endpoint: inhibition at 10 µM (%)
State the answer as a number, implicitly in %.

Qu. inhibition at 10 µM of O=C(NCc1nc2cc(F)c(F)cc2[nH]1)C1CCN(Cc2ccc3[nH]ccc3c2)CC1 on binding between p34 protein and NEDD4-1 protein (Homo sapiens, UniProt P46934+Q9UHV2)?
Ans. 47.2

Qu. Request: inhibition at 10 µM, test system binding between p34 protein and NEDD4-1 protein (Homo sapiens, UniProt P46934+Q9UHV2), entry O=C(Nc1ccc(C(F)(F)F)cc1)N1CCN(Cc2ccc3[nH]ccc3c2)CC1
Ans. 49.6

Qu. Quick check: inhibition at 10 µM on binding between p34 protein and NEDD4-1 protein (Homo sapiens, UniProt P46934+Q9UHV2), item O=C(NCc1nc2ccccc2[nH]1)N1CCN(Cc2c[nH]c3ccc(Cl)cc23)CC1 ?
Ans. 52.4

Qu. Recorded inhibition at 10 µM for Cn1c(CNC(=O)C2CCN(Cc3c[nH]c4ccccc34)CC2)nc2ccccc21 with binding between p34 protein and NEDD4-1 protein (Homo sapiens, UniProt P46934+Q9UHV2), please?
Ans. 42.9

Qu. Test system binding between p34 protein and NEDD4-1 protein (Homo sapiens, UniProt P46934+Q9UHV2); read-out inhibition at 10 µM; what value for O=C(NCc1ncc[nH]1)C1CCN(Cc2c[nH]c3ccc(Cl)cc23)CC1 ?
Ans. 58.4

Qu. // fetch binding between p34 protein and NEDD4-1 protein (Homo sapiens, UniProt P46934+Q9UHV2) inhibition at 10 µM for Cn1c(CNC(=O)N2CCN(Cc3c[nH]c4ccc(Cl)cc34)CC2)nc2ccccc21
Ans. 52.3

Qu. Fill in the recorded inhibition at 10 µM for this compound, with binding between p34 protein and NEDD4-1 protein (Homo sapiens, UniProt P46934+Q9UHV2) as test system: Cc1ccc2[nH]c(C(C)NC(=O)C3CCN(Cc4c[nH]c5ccc(C(F)(F)F)cc45)CC3)nc2c1 (stereo not shown)
Ans. 59.1
